# protocol.description: Cytotoxicity against mouse RAW264.7 cells assessed as cell viability at 1 uM incubated for 24 hrs by CCK8 assay relative to control
# Format: toxicity, cell-based
# particulars: read-out: Activity
Reported viability at 24 h, 1 µM values for the following compounds.
Your answer should be a plain number; it is taken to be in %.

O=C(/C=C/c1c(Cl)c(O)c(O)c(O)c1Cl)c1ccccc1: 95.5
O=C(/C=C/c1c(Cl)c(O)c(O)c(O)c1Cl)c1cccs1: 99.1
O=C(/C=C/c1c(Cl)c(O)c(O)c(O)c1Cl)c1cccc(-c2ccc(Cl)c(Cl)c2)c1: 69.1
O=C(/C=C/c1c(Cl)c(O)c(O)c(O)c1Cl)c1ccc(O)cc1: 122

Query compound follows.
[ask] What value of viability at 24 h, 1 µM has been reported for the following compound? `O=C(/C=C/c1c(Cl)c(O)c(O)c(O)c1Cl)c1ccc(Cl)cc1`
[reply] 81.2
